Target: SIK2 kinase (full length, Thermo Fisher) (Homo sapiens, UniProt Q9H0K1)
Construct: SIK2 kinase (full length, Thermo Fisher); purchased Thermo Fisher
Sequence (Q9H0K1 whole entry): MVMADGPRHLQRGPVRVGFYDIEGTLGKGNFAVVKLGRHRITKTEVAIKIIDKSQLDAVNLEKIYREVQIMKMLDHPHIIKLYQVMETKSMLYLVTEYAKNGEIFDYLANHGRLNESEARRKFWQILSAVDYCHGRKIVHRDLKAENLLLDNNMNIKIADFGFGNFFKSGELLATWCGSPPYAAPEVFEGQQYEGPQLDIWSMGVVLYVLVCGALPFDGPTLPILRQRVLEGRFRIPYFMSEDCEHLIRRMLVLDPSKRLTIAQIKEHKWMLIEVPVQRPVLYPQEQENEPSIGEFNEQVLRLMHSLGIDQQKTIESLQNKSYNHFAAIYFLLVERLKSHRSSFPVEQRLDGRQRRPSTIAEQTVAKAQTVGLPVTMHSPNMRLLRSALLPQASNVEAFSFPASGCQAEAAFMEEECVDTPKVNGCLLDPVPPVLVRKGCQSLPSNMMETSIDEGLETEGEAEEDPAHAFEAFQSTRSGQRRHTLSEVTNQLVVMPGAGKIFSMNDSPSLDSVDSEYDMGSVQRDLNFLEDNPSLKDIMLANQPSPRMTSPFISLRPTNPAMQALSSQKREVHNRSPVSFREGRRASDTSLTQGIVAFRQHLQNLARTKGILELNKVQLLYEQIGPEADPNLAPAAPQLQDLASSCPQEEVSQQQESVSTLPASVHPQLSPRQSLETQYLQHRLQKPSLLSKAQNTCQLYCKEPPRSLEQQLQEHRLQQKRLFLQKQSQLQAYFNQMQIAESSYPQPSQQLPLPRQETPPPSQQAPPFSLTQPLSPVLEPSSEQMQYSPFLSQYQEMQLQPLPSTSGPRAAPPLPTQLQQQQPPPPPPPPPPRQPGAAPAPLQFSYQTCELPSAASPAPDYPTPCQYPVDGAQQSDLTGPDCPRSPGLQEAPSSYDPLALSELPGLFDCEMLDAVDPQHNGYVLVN
Assay: Biochemical activities determination for SIK2 protein (TR-FRET)
Settings: 80 uM ATP, 0.5 μM substrate
Method: 2. Biochemical Activities Determination for SIK2 Protein Compounds were tested for inhibition of SIK2 kinase (full length, Thermo Fisher) in assays based on the time-resolved fluorescence-resonance energy transfer (TR-FRET) methodology. […] Plates were sealed and incubated at room temperature for overnight, and the TR-FRET signals (ratio of fluorescence emission at 665 nm over emission at 620 nm with excitation at 337 nm wavelength) were recorded on a PHERAstar FS plate reader (BMG Labtech). […]
Doc: threshold 70 nM (exclusive). Items with IC50 beneath it return rule met; others return rule not met.

These solved cases illustrate the format of a correct answer.
Compound: Cn1cc(-c2ccc3c(-c4ccc(C#N)cc4)coc3c2)cn1
Assigned Category: rule not met
//
Compound: COc1cc(-c2coc3cc(OCCN4CC[C@H](C(C)C)C4)ccc23)cc(OC(F)F)c1C(=O)N[C@@H]1C[C@@H]1F
Assigned Category: rule met

Enquiry: is_below(IC50, 70 nM) for Cn1cc(-c2ccc3c(-c4cc5c(c(OC(F)F)c4)C(=O)N(CC(F)(F)F)CC5)coc3c2)cn1 ?
Return: rule met

Enquiry: Subsequent entry: NC1CCN(c2cccc3ccc(-c4coc5cc(OCCN6CCOCC6)ccc45)nc23)CC1
Return: rule met

Enquiry: Subsequent entry: COc1cc(-c2coc3cc(OCCN4CCC(F)(F)C4)ccc23)cc(OC(F)F)c1C(=O)N[C@@H]1C[C@@H]1F
Return: rule not met

Enquiry: Subsequent entry: COc1cc(-c2coc3cc(OCC4CCCN4C)ccc23)cc2c1C(=O)N(CC(F)(F)F)CC2 (stereo not drawn)
Return: rule not met

Enquiry: Subsequent entry: COc1cc(-c2coc3cc(-c4cn(C)nn4)ccc23)cc2c1C(=O)N(CC(F)(F)F)CC2
Return: rule met

Enquiry: Subsequent entry: COc1cc(-c2coc3cc(-c4cnn(C5CN(C)C5)c4)ccc23)cc(OC(F)F)c1C(=O)N[C@@H]1C[C@@H]1F
Return: rule met

* * *

Molecular target: SIK3 kinase (aa59-365, Thermo Fisher) (Homo sapiens)
Construct: SIK3 kinase (aa59-365, Thermo Fisher); purchased Thermo Fisher
Sequence (Q9Y2K2 59-365): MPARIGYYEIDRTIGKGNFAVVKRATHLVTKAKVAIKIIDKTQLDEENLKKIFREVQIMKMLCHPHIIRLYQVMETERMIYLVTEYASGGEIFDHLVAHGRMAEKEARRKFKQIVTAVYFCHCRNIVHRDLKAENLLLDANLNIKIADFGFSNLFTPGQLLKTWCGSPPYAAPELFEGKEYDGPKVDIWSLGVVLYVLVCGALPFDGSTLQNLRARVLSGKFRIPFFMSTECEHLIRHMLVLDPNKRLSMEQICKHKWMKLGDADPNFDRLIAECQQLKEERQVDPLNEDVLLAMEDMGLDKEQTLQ
Test: Biochemical activities determination for SIK3 protein (TR-FRET)
Conditions: 125 uM ATP, 0.5 μM STK1 substrate
Procedure: 3. Biochemical Activities Determination for SIK3 Protein Compounds were tested for inhibition of SIK3 kinase (aa59-365, Thermo Fisher) in assays based on the time-resolved fluorescence-resonance energy transfer (TR-FRET) methodology. […] Plates were sealed and incubated at room temperature for overnight, and the TR-FRET signals (ratio of fluorescence emission at 665 nm over emission at 620 nm with excitation at 337 nm wavelength) were recorded on a PHERAstar FS plate reader (BMG Labtech). […]
Measurement Type: IC50
# number then unit; no other words

See these solved cases before continuing.
Smiles Repr: O=C1c2c(cc(-c3coc4cc(OCCN5CCCC5)ccc34)cc2OC(F)F)CCN1CC(F)(F)F
Measurement Type: IC50
Result: 300 nM

Smiles Repr: CCOc1cncc(-c2ccc3c(-c4cc5c(c(OC)c4)C(=O)N(CC(F)(F)F)CC5)coc3c2)c1
Measurement Type: IC50
Result: 1430 nM

Smiles Repr: COc1cc(-c2coc3cc(-c4cnn(C)c4)ccc23)cc2c1C(=O)N(CC#N)CC2
Measurement Type: IC50
Result: 14 nM

Enquiry: For COc1cc(-c2coc3cc(OCCN4CCN(C)CC4)ccc23)cc(OC(F)F)c1C(=O)N[C@@H]1C[C@@H]1F , what is its reported IC50?
Return: 75 nM
